# test-system: human CB2 receptors (Homo sapiens, UniProt P34972)
# Construct: expressed in transfected cells; host or cells: CHO cells
# Sequence (P34972 whole entry): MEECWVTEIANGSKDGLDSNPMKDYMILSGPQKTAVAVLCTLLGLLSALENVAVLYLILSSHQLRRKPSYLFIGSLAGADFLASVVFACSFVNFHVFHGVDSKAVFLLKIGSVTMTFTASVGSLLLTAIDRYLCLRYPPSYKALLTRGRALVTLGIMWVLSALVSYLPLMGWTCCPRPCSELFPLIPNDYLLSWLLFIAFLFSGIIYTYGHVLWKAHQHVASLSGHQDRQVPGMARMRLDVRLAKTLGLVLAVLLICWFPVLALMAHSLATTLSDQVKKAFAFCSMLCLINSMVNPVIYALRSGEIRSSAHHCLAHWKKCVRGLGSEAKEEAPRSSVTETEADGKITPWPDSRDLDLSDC
# experiment: cAMP assay, human CB2
# Format: cell-based
# test-settings: functional cAMP assay, CHO cells expressing human CB2; read-out: Ec50: CB2 - hu cAMP
pEC50: −log10 of the molar value.
Please map values of pEC50 to classes as shown: low group: < 7; middle group: ≥ 7 and < 8; high group: ≥ 8

Task item: Category of COCCNC(=O)n1nnn(-c2cccc(F)c2)c1=O [Example 110] , please.
Reply: low group

Task item: Class? Entry: CC(=O)N[C@H]1CCN(C(=O)n2nnn(-c3cccc(Cl)c3)c2=O)C1 [Example 68]
Reply: middle group

Task item: Bin? CC1(C)CCN(C(=O)n2nnn(-c3cccc(F)c3)c2=O)CC1 [Example 28]
Reply: high group

Continuing:
Task item: State the class of the compound shown: CN(C)C(=O)CN1CCN(C(=O)n2nnn(-c3ccc(Cl)cc3)c2=O)CC1 [Example 94]
Reply: middle group

Task item: Looking at C[C@@H]1CN(C(=O)n2nnn(-c3cccc(F)c3)c2=O)C[C@H](C)O1 [Example 59] , which class would you pick?
Reply: low group

Task item: Category of COCC1CCN(C(=O)n2nnn(-c3cccc(F)c3)c2=O)CC1 [Example 60] :
Reply: high group

Task item: Category of COCCCN(C)C(=O)n1nnn(-c2cccc(Cl)c2)c1=O [Example 86] , please.
Reply: high group

###

# test-system: human CB2 receptors (Homo sapiens, UniProt P34972)
# Construct: expressed in transfected cells; host or cells: CHO cells
# experiment: cAMP assay, human CB2
# Assay type: cell-based
# test-settings: functional cAMP assay, CHO cells expressing human CB2; read-out: Ec50: CB2 - hu cAMP
readout-label: log10 EC50 (log10 of the value in nM)
Note: values are log10 of EC50 expressed in nM.

Task item: // returns reported log10 EC50 for input O=C(N1CCOCC1)n1nnn(-c2cc(F)cc(F)c2)c1=O [Example 126]
Reply: 1.11

New cases:
Task item: // log10 EC50 lookup, key: NC(=O)[C@@H]1CCCN1C(=O)n1nnn(-c2cccc(F)c2)c1=O [Example 22]
Reply: 3.28

Task item: May I ask what log10 EC50 has been recorded for COC(=O)C1CN(C(=O)n2nnn(-c3cccc(F)c3)c2=O)C1 [Example 24] ?
Reply: 2.09

###

Quick reference for pEC50 among some compounds
# test-system: human CB2 receptors (Homo sapiens)
# Construct: expressed in transfected cells; host or cells: CHO cells
# experiment: cAMP assay, human CB2
# Assay type: cell-based
Please keep in mind that pEC50 is minus log10 of the molar concentration; only the number is needed.

Task item: Find the measured pEC50: item CCN(Cc1ccccc1)C(=O)n1nnn(-c2cccc(F)c2)c1=O [Example 12] , target or system human CB2 receptors (Homo sapiens).
Reply: 9.22

Next:
Task item: Which measured pEC50 belongs to COCCN(C(=O)n1nnn(-c2ccc(Cl)cc2)c1=O)C(C)C [Example 85] , tested on human CB2 receptors (Homo sapiens)?
Reply: 8.10

Task item: # get_value(readout= pEC50, system= human CB2 receptors (Homo sapiens)) for CCN(CCOC)C(=O)n1nnn(-c2cccc(Cl)c2)c1=O [Example 80]
Reply: 8.62

Task item: Please state recorded pEC50 (tested on human CB2 receptors (Homo sapiens)) of CCOCCN(CC)C(=O)n1nnn(-c2cccc(Cl)c2)c1=O [Example 98]
Reply: 8.74

Entry source: patent US20160083357A1
